- targetDesc: UniProt:P20292
- Sequence (P20292 whole entry): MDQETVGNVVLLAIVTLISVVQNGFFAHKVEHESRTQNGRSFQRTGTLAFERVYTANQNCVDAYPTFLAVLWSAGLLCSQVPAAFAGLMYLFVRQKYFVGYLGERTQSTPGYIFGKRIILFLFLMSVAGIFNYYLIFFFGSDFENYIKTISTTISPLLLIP
- assayComment: Inhibition of FLAP in human whole blood assessed as reduction in all-trans isomers of LTB4 and 5-HETE formation preincubated with enzyme for 15 mins followed by fMLP addition and measured after 15 mins by HPLC analysis
- Assay type: tissue-based
quantityName: IC50 (µM)
Give the value, in units of µM, as a plain number.

Could you share what IC50 was measured for CC(C)Cc1ccc(C(C)c2nc3ccccc3n2Cc2ccccc2Cl)cc1 (stereo unspecified) , tested on UniProt:P20292?
4.8

----------
Reported IC50 values for a set of molecules
- targetDesc: Polyunsaturated fatty acid 5-lipoxygenase (Homo sapiens)
- Sequence (P09917 whole entry): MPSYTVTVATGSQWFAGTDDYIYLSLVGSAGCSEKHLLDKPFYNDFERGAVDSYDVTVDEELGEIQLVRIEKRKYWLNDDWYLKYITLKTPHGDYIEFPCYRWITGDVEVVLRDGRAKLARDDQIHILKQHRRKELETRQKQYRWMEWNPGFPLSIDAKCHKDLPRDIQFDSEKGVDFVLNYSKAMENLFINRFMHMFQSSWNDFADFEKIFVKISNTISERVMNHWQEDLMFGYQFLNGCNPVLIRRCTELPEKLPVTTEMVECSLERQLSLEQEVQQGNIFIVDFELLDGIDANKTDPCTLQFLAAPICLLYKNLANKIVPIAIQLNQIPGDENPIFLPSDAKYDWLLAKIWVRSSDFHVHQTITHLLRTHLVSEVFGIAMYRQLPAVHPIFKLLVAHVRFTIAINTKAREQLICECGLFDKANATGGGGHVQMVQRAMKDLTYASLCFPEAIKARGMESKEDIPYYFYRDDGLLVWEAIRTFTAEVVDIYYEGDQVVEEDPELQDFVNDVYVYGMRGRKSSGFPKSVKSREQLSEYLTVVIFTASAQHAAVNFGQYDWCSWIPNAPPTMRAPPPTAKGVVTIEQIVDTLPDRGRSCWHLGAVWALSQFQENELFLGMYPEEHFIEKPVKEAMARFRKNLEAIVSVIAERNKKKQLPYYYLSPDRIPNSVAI
- assayComment: Inhibition of 5-LOX in human whole blood assessed as inhibition of LTB4 formation preincubated for 10 mins followed by calcium ionophore A23187 addition and measured after 30 min by RIA/RP--HPLC analysis
- Type: tissue-based
Give the value, in units of µM, as a plain number.

O=C(O)[C@@H](c1ccc(OCc2ccc3ccccc3n2)cc1)C1CCCC1; 11.6

Attention now turns to another entry.
Could you share what IC50 was measured for O=C(O)[C@@H](c1ccc(OCc2ccc3ccccc3n2)cc1)C1CCCCCC1 , tested on Polyunsaturated fatty acid 5-lipoxygenase (Homo sapiens)?
1.1
